# TEST_SYSTEM: human glucagon receptor (Homo sapiens)
# Construct: made in house; host or cells: FreeStyle CHO cells, transient transfection with pMSRαneo/hGCGR; membrane fraction (35,000 rpm pellet)
# Sequence (P47871 26-477): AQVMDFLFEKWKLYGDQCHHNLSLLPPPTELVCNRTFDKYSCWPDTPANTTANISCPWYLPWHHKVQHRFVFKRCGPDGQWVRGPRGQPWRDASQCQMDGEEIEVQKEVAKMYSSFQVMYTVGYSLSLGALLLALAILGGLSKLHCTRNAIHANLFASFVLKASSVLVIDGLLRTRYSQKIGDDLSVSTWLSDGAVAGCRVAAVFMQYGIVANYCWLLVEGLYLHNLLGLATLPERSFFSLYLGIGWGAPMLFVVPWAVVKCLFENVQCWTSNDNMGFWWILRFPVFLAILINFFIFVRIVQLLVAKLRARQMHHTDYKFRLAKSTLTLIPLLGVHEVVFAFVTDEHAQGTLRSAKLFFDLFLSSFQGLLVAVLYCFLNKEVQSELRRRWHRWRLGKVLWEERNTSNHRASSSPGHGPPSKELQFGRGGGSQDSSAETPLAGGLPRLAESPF
# METHOD_NOTES: Glucagon binding inhibitory activity ([125I]-glucagon binding to glucagon receptor membrane protein)
# MEASUREMENT_SETUP: test compound 10 μM; 0.4% DMSO = 0%, non-labeled glucagon 1 μM = 100%; read-out: inhibitory rate (%) at 10 μM
VALUE_TYPE: inhibition at 10 µM
Please state the number and follow it with the unit.

Query :: Requested field: inhibition at 10 µM. Item: COc1ccc(-n2cc(C(Nc3ccc(C(=O)NCCC(=O)O)cc3)C3CCCCC3)c(C(C)C)n2)cc1 (stereo not drawn)
Result :: 63%

Query :: Requested field: inhibition at 10 µM. Item: COc1ccc2oc(C(CC(C)C)Nc3ccc(C(=O)N(C)CCC(=O)O)cc3)c(C)c2c1 (stereo not drawn)
Result :: 70%

Query :: Requested field: inhibition at 10 µM. Item: Cc1c(C(Nc2ccc(C(=O)NCCC(=O)O)cc2)C2CCCCC2)oc2ccc(OCc3ccc(Cl)nc3)cc12 (stereo not drawn)
Result :: 86%

Query :: Requested field: inhibition at 10 µM. Item: CCc1nn(-c2ccc(OC)cc2)cc1C(CC(C)C)Nc1ccc(C(=O)NCCC(=O)O)cc1 (stereo not drawn)
Result :: 63%

Query :: Requested field: inhibition at 10 µM. Item: Cc1c(C(Nc2ccc(C(=O)N(C)CCC(=O)O)cc2)C2CCCCC2)oc2ccc(OCc3ccccc3)cc12 (stereo not drawn)
Result :: 82%

Query :: Requested field: inhibition at 10 µM. Item: Cc1cc(COc2ccc3oc(C(Nc4ccc(C(=O)N(C)CCC(=O)O)cc4)C4CCCCC4)c(C)c3c2)no1 (stereo not drawn)
Result :: 88%

Query :: Requested field: inhibition at 10 µM. Item: CCOc1cccc(-n2cc(C(Nc3ccc(C(=O)N(C)CCC(=O)O)cc3)C3CCCCC3)c(CC)n2)c1 (stereo not drawn)
Result :: 78%

Query :: Requested field: inhibition at 10 µM. Item: Cc1nn(-c2ccc(C(F)(F)F)cn2)cc1C(Nc1ccc(C(=O)NCCC(=O)O)cc1)C1CCCCC1 (stereo not drawn)
Result :: 73%

Query :: Requested field: inhibition at 10 µM. Item: Cc1ccc2oc(C(Nc3ccc(C(=O)N(C)CCC(=O)O)cc3)C3CCCCC3)c(C)c2c1 (stereo not drawn)
Result :: 79%

Query :: Requested field: inhibition at 10 µM. Item: CCCCCCC(Nc1ccc(C(=O)N(C)CCC(=O)O)cc1)c1cc2cc(Cl)ccc2n1-c1cccc(C(F)(F)F)c1 (stereo not drawn)
Result :: 74%

Query :: Requested field: inhibition at 10 µM. Item: CCc1nn(-c2ccc(OC)cc2)cc1C(Nc1ccc(C(=O)N(C)CCC(=O)O)cc1)C1CCCCC1 (stereo not drawn)
Result :: 60%

Query :: Requested field: inhibition at 10 µM. Item: CN(CCC(=O)O)C(=O)c1ccc(NC(c2cn(-c3ccc(C(F)(F)F)cn3)nc2CCc2ccccc2)C2CCCCC2)cc1 (stereo not drawn)
Result :: 74%

Query :: Requested field: inhibition at 10 µM. Item: Cc1nn(-c2ccc(C(F)(F)F)cc2)cc1C(Nc1ccc(C(=O)N(C)CCC(=O)O)cc1)C1CCCCC1 (stereo not drawn)
Result :: 71%

Query :: Requested field: inhibition at 10 µM. Item: Cc1c(C(Nc2ccc(C(=O)NCCC(=O)O)cc2)C2CCCCC2)oc2ccc(F)cc12 (stereo not drawn)
Result :: 78%

Query :: Requested field: inhibition at 10 µM. Item: Cc1c(C(Nc2ccc(C(=O)N(C)CCC(=O)O)nc2)C2CCCCC2)sc2ccccc12 (stereo not drawn)
Result :: 77%
